Cited source for all entries: PubChem BioAssay

For each entry below, report its inhibition of aggregation value.
experiment: reduction of polyQ htt aggregates in cells – imaging, exon1htt(103Q)mCFP cells, high-content imaging, primary screen (AID 483); conditions: exon1htt(103Q)mCFP cell line, aggregate imaging, at 2 µM; stronger effect = higher value;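 also: compound exposure lasted 3 days before fixation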
Give bare numbers, in %.

// query What value of measured inhibition of aggregation is listed for CCOC(=O)C1CCCN(C(=O)c2cc3c(C)nc4ccccc4c3o2)C1 (centres undefined) ?
// result 8.7

// query What value of measured inhibition of aggregation is listed for COC(=O)CSc1nnc(CSc2nc(C)cc(C)n2)n1Cc1ccco1 ?
// result -0.5

// query What value of measured inhibition of aggregation is listed for CCn1nnnc1SCC(=O)Nc1nnc(C(C)C)s1 ?
// result 21.9

New cases:
// query What value of measured inhibition of aggregation is listed for O=C(Nc1ccc2oc(Cc3ccc(Cl)cc3)nc2c1)c1cccnc1 ?
// result -0.8

###

experiment: reduction of polyQ htt aggregates in cells – imaging, exon1htt(103Q)mCFP cells, high-content imaging, primary screen (AID 483); settings: exon1htt(103Q)mCFP cell line, aggregate imaging, at 2 µM; stronger effect = higher value;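 also: compound exposure lasted 3 days before fixation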
experimental endpoint: inhibition of aggregation (%)
Answers are plain numbers, in %.

// query What value of measured inhibition of aggregation is listed for O=C(Nc1nc(-c2ccc(S(=O)(=O)N3CCCCCC3)cc2)cs1)c1cccs1 ?
// result -6.4

Consider the following items and state reported inhibition of aggregation for each.
1. O=C(Cn1cnc2c(cnn2-c2ccc(F)cc2)c1=O)N1CCN(c2ccccc2)CC1
2. CCOc1ccc(S(=O)(=O)Nc2ccc(Cl)cn2)c(C)c1C
3. Cc1nc2cc(NC(=O)N3c4ccccc4CC3C)ccc2o1 (stereo not given)
4. CCn1cc(C(=O)NCc2ccccc2OC)c(=O)c2cc(S(=O)(=O)N(C)C)ccc21
5. CCC(=O)Nc1cc(C(=O)NCC2CCCN2CC)c(OC)cc1N(C)C (stereo not given)

// result
1. -0.4
2. 20.2
3. 7.4
4. 7.5
5. -23.1

###

For each entry below, report its nuclei count value.
assay: endothelial E-selectin expression blockers – imaging, HUVEC, immunofluorescence, MLSMR starter and 10KST1 sets, primary screen (AID 487); conditions: HUVEC TNFalpha-induced E-selectin immunofluorescence imaging, at 2 µM; measured here: cell number, toxicity;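 also: 100% = median nuclei count of all wells on the same plate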
Answers are plain numbers, in %.

Solved entries (count: 5):
// query What value of measured nuclei count is listed for CCOC(=O)c1nnn(-c2nonc2N)c1CN1CCc2ccccc2C1 ?
// result 108

// query What value of measured nuclei count is listed for CC1(C)CC(=O)C2=C(C1)Nc1nc(SCCN3CCOCC3)[nH]c(=O)c1C2c1cccs1 (stereo not given) ?
// result 104

// query What value of measured nuclei count is listed for COCc1nnc(SCC(=O)NC(C)c2ccccc2)n1-c1ccccc1 (stereo not given) ?
// result 101

// query What value of measured nuclei count is listed for Cc1ccc(N(Cc2ccco2)C(=O)c2cccc(S(=O)(=O)N(C)C)c2)cc1 ?
// result 97.5

// query What value of measured nuclei count is listed for COc1cccc2c(=O)cc(C)n(CC(=O)Nc3ccc(C)c(C)c3)c12 ?
// result 85.2

Consider the following items and state reported nuclei count for each.
1. O=C(CN1C(=O)c2ccccc2S1(=O)=O)Nc1ccc(S(=O)(=O)N2CCCCCC2)cc1
2. CC1(C)OC(=O)C(=CNc2ccccc2)C(=O)O1
3. O=C(c1csc2ccccc12)N1CCCCCC1
4. C=CCSc1nnc(-c2cccnc2)o1
5. COCCCNS(=O)(=O)c1ccc2c(c1)CCN2C(C)=O

// result
1. 107
2. 102
3. 106
4. 78.2
5. 139

###

experiment: inhibitors of TNFa-induced NFkB p65 translocation, primary screen, imaging, HUVEC, MLSMR starter and 10KST1 sets (AID 438); conditions: HUVEC TNFa-induced p65 nuclear translocation; at 2 µM, stronger effect = higher value, 0% TNFa-plus-vehicle, 100% no-TNFa wells;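 also: compound added about 3h40 before a 20 min TNFalpha stimulation; signal is the nuclear over cytoplasmic p65 intensity ratio per well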
For each entry below, report its inhibition value.
Give bare numbers, in %.

Solved entries (count: 10):
// query What value of measured inhibition is listed for COc1ccc(CN2CC(C(=O)NCCCOC(C)C)CC2=O)cc1 (centres undefined) ?
// result -12.7

// query What value of measured inhibition is listed for Cn1nc(C(=O)Nc2cccc(C(F)(F)F)c2)ccc1=O ?
// result 9.9

// query What value of measured inhibition is listed for O=c1ccn(Cc2ccccc2Cl)cc1 ?
// result 3

// query What value of measured inhibition is listed for Cc1nc2ccccc2c(=O)n1/N=C/c1ccncc1 ?
// result -6.3

// query What value of measured inhibition is listed for O=C(O)CCc1ccc(-c2cccs2)n1CCC(=O)O ?
// result -2.7

// query What value of measured inhibition is listed for CCOC(=O)CC(=O)CSc1nc(-c2cccnc2)ccc1C#N ?
// result 11.4

// query What value of measured inhibition is listed for CSc1nc2ccc(S(=O)(=O)N3CCOCC3)cc2s1 ?
// result -2.2

// query What value of measured inhibition is listed for Cc1ccc2c(c1)c1c3n2CC(=C2C(=O)OC(C)(C)OC2=O)NC3CCC1 (centres undefined) ?
// result -10.5

// query What value of measured inhibition is listed for CN(C)C=Nc1nonc1N ?
// result 9

// query What value of measured inhibition is listed for O=C(CSc1ncn[nH]1)NC1CC2CCC1C2 (centres undefined) ?
// result -16.8

Consider the following items and state reported inhibition for each.
1. CCOc1ccccc1NC(=O)C1CCCN1C(=O)OCc1ccccc1 (centres undefined)
2. COc1ccc(OC)c(S(=O)(=O)NCCO)c1
3. COc1cc2[nH]c(=O)n(CCC(=O)N3CCc4ccccc4C3)c(=O)c2cc1OC
4. NCC(O)COc1ccc2c(c1)OCO2 (centres undefined)
5. c1ccc(CNc2ccc3c(c2)ncn3C2CCCCC2)nc1
6. CCN(CC)S(=O)(=O)c1ccc2c(c1)c(=O)c(C(=O)NCCOC)cn2C
7. Cc1ccc(Nc2nc(N)nc(CN3CCN(Cc4ccc5c(c4)OCO5)CC3)n2)cc1

// result
1: 6; 2: -7.9; 3: -20.3; 4: -7; 5: -4.9; 6: 6.9; 7: 4.6

Consider the following items and state reported inhibition for each.
1. COC(=O)CCN(C(=O)c1ccc2c(c1)OCO2)c1ccccn1
2. COc1ccccc1-n1nnnc1SCc1cc2c(cc1Br)OCO2

// result
1: 2.9; 2: -4.5

###

experiment: TLR3 IRF3 reporter activation blockers – cell-based, poly I:C stimulus, luciferase, 10K MLSCN set, primary screen (AID 602277); details: HEK293-TLR3 RL24 IRF3 luciferase reporter, at 10 µM, stronger effect = higher value
For each entry below, report its inhibition value.
One number for each entry, in %.

Consider the following items and state reported inhibition for each.
1. COc1cc(C2C(C(=O)c3ccc(C)o3)=C(O)C(=O)N2c2cc(C)on2)cc(Br)c1O (stereo not given)
2. O=C(CN(CC1CCCO1)S(=O)(=O)c1ccc(S(=O)(=O)NC2CC2)cc1)Nc1ccccc1 (stereo not given)
3. CCOc1ccc(CCNc2nc3c(c(=O)n(C)c(=O)n3C)n2CC)cc1OCC

// result
1: 19.1; 2: 7.34; 3: 9

Consider the following items and state reported inhibition for each.
1. O=C(c1cc(-c2ccco2)nn1-c1cccc(Cl)c1)N1CCCCC1
2. O=C(CCCN1C(=O)c2ccccc2C1=O)NCc1cccnc1
3. O=C1CC(c2cccnc2)c2cc3c(cc2N1)OCO3 (stereo not given)
4. O=C(CSc1nnnn1C1CCCC1)N1CCN(C(=O)c2ccco2)CC1
5. CC(=O)Nc1ccc(OC(=O)c2cccnc2)cc1

// result
1. 36.1
2. 8.47
3. 25
4. 16.4
5. -12.7

Consider the following items and state reported inhibition for each.
1. Cc1nnc(SCC(=O)NCc2ccc3c(c2)OCO3)s1
2. COc1ccc(C2CC(=O)c3c(C)nc(N4CCN(c5ccccc5)CC4)nc3C2)cc1 (stereo not given)
3. O=C(c1cc2nc(-c3ccco3)cc(C(F)(F)F)n2n1)N1CCN(c2ccccn2)CC1
4. CCC(=O)Nc1cc(C)c(NC(=O)C23CC4CC(CC(C4)C2)C3)cn1
5. COc1ccc(Cl)c(N2CCN(CCCNC(=O)Nc3ccc(C)cc3)CC2)c1
6. COc1cc2cc(C(c3nnnn3C3CCCC3)N3CCCCCC3)c(=O)[nH]c2cc1OC (stereo not given)

// result
1. 11.6
2. -8.5
3. -6.91
4. 18.1
5. -5.24
6. 20.8

Consider the following items and state reported inhibition for each.
1. O=C(C1CCC(CNS(=O)(=O)c2cccc3cccnc23)CC1)N1CCCC1 (stereo not given)
2. Cc1ccc2c(C(=O)CN3CCSCC3)c(C)[nH]c2c1
3. Cc1nc(C)c2c(c1C(F)(F)F)-c1ccccc1C2(F)F
4. CC1=C/C(=C/N(C)c2ccccc2)C(=O)S1
5. N#Cc1c(NC(=O)CSc2nnnn2C2CCCC2)sc2c1CCCC2
6. Cc1nn(Cc2ccccc2)c(C)c1NC(=O)CCC(=O)O

// result
[14.6, -12.9, 98.9, -17, 26.3, -12.9]
